tested.system: FGFR3 (Homo sapiens, UniProt P22607)
Construct: made in house
Sequence (P22607 23-806, species assumed): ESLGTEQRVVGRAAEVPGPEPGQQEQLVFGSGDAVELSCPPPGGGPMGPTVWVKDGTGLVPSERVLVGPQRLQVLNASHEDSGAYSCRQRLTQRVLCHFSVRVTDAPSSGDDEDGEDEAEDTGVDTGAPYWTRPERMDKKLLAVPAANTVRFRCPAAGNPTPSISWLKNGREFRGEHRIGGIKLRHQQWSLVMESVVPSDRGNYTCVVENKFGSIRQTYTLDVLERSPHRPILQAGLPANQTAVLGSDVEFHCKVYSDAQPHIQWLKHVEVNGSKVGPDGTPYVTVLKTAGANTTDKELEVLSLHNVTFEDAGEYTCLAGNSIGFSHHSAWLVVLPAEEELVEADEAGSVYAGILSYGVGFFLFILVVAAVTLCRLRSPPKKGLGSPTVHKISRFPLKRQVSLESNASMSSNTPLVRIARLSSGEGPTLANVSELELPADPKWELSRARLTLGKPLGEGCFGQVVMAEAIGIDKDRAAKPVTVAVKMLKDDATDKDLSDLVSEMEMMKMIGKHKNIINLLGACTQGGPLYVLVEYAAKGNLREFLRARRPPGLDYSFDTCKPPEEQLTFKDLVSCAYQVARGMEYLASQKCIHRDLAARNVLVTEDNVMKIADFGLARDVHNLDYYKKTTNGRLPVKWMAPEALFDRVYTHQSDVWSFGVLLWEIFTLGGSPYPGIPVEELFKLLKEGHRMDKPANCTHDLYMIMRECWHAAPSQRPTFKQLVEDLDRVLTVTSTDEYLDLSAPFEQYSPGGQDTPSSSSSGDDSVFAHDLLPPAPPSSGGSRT
procedure.text: Liability panel screening by DSF: FGFR3
Type: binding
details: DSF, 20 µM, n=2; read-out: Mean ΔTM FGFR3
measured.property: ΔTm at 20 µM (°C)
Give the number; °C is assumed, so skip it.

# compound, ΔTm at 20 µM (°C)
rows = [
    ("C[C@]12CCC(=O)C=C1CC[C@@H]1[C@@H]2[C@@H](O)C[C@]2(C=O)[C@@H](C(=O)CO)CC[C@@H]12 [Aldosterone]", -0.16),
    ("COc1ccc2c(c1)OC(C)(C)C(c1ccccc1)C2c1ccc(OCCN2CCCC2)cc1 (centres unmarked) [Ormeloxifene]", 0.15),
]

Exam item: Query ΔTm at 20 µM for Cc1ccc2c(NC[C@](O)(CC(C)(C)c3cc(F)cc4c3OCC4)C(F)(F)F)cccc2n1 [Mapracorat]
Marked response: -1.28

Exam item: Query ΔTm at 20 µM for CC#C[C@]1(O)CC[C@H]2[C@@H]3CCC4=CC(=O)CCC4=C3[C@@H](c3ccc(N(C)C)cc3)C[C@@]21C [Mifepristone]
Marked response: 0.14

Exam item: Query ΔTm at 20 µM for CCCC1O[C@@H]2C[C@H]3[C@@H]4CCC5=CC(=O)C=C[C@]5(C)[C@H]4[C@@H](O)C[C@]3(C)[C@]2(C(=O)CO)O1 (some centres unmarked) [Budesonide]
Marked response: -0.77

Exam item: Query ΔTm at 20 µM for C[C@H]1C[C@H]2[C@@H]3CCC4=CC(=O)C=C[C@]4(C)[C@@]3(Cl)[C@@H](O)C[C@]2(C)[C@@]1(O)C(=O)CO [Beclomethasone]
Marked response: -0.31

Exam item: Query ΔTm at 20 µM for C[C@]12CC[C@@H]3c4ccc(O)cc4C[C@@H](CCCCCCCCC[S+]([O-])CCCC(F)(F)C(F)(F)F)[C@H]3[C@@H]1CC[C@@H]2O (some centres unmarked) [Fulvestrant]
Marked response: -3.24

Exam item: Query ΔTm at 20 µM for CC/C(=C(/CC)c1ccc(O)cc1)c1ccc(O)cc1 [Diethylstilbestrol]
Marked response: -8.29

Exam item: Query ΔTm at 20 µM for COc1cccc([C@@H](Oc2ccc3c(cnn3-c3ccc(F)cc3)c2)[C@H](C)NC(=O)C(F)(F)F)c1 [AZD5423]
Marked response: -1.62

Exam item: Query ΔTm at 20 µM for CN(C)CCOc1ccc(/C(=C(/CCCO)c2ccccc2)c2ccc(O)cc2)cc1 [GSK5182]
Marked response: 0.62

Exam item: Query ΔTm at 20 µM for CCC(=O)O[C@]1(C(=O)SCF)[C@H](C)C[C@H]2[C@@H]3C[C@H](F)C4=CC(=O)C=C[C@]4(C)[C@@]3(F)[C@@H](O)C[C@@]21C [Fluticasone propionate]
Marked response: 0.32

Exam item: Query ΔTm at 20 µM for CC/C(=C(\c1ccc(O)cc1)c1ccc(OCCN(C)C)cc1)c1ccccc1 [(Z)-4-Hydroxytamoxifen]
Marked response: 0.53

Exam item: Query ΔTm at 20 µM for COc1cc(/C=C(\C#N)C(=O)Nc2nnc(C(F)(F)F)s2)ccc1OCc1ccc(C(F)(F)F)cc1C(F)(F)F [XCT790]
Marked response: 0.83

Exam item: Query ΔTm at 20 µM for Oc1ccc(-c2c(-c3ccccc3)nn3c(C(F)(F)F)cc(C(F)(F)F)nc23)cc1 [PHTPP]
Marked response: 1.15
